Overview of reported IC50 across a group of molecules:
Target: human cloned 5-HT2A receptor, expressed in L929 cells (Homo sapiens, UniProt P28223)
Construct: expressed in transfected cells; host or cells: L929 cells
Assay: In vitro binding affinity for 5-HT2A receptor ([125I]R91150 radioligand binding)
Conditions: human cloned 5-HT2A receptor in L929 cells, [125I]R91150; read-out: 5-HT2A pIC50 (converted)
Answer with a number only, understood to be in nM.

Solved entries (count: 3):
[
  {
    "molecule": "OC(COc1ccc(F)cc1)CN1CCN(CC2CC3c4ccccc4Cc4ccc(F)cc4C3O2)CC1 (mixture of isomers) [Compound 57]",
    "IC50 / nM": 7.24
  },
  {
    "molecule": "Fc1ccc2c(c1)C1OC(CN3CCN(Cc4cccc(Oc5ccccc5)c4)CC3)CC1c1ccccc1C2 (stereo not shown) [Compound 76]",
    "IC50 / nM": 66.1
  },
  {
    "molecule": "N#CCCC1CCN(CC2CC3c4ccccc4Cc4ccc(F)cc4C3O2)CC1 (stereo not shown) [Compound 170]",
    "IC50 / nM": 1.82
  }
]

Next up:
Recorded IC50 of Fc1ccc2c(c1)C1OC(CN3CCN(c4ncccc4C(F)(F)F)CC3)CC1c1ccccc1C2 (stereo not shown) [Compound 121] , please.
13.2

* * *

Biological target: human cloned 5-HT2C receptor, expressed in CHO cells (Homo sapiens)
Construct: expressed in transfected cells; host or cells: CHO cells
Sequence (P28335 33-458): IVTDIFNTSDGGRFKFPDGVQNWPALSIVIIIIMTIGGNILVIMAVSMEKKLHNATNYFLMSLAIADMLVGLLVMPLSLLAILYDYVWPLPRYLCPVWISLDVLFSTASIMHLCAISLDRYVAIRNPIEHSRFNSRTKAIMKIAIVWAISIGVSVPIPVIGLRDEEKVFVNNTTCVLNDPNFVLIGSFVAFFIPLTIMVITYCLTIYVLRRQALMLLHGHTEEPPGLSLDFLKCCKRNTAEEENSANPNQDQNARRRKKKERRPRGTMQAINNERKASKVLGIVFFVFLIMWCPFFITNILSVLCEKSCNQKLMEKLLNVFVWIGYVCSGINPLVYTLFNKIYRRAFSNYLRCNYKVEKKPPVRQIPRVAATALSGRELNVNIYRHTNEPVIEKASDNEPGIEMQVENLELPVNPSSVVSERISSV
Experiment: In vitro binding affinity for 5-HT2C receptor ([3H]mesulergine radioligand binding)
Settings: human cloned 5-HT2C receptor, read-out: 5-HT2C pIC50 (converted)
test_readout: IC50

Consider the following illustrative entries.
[
  {
    "compound": "Fc1ccc2c(c1)C1OC(CN3CCN(c4ncccc4C(F)(F)F)CC3)CC1c1ccccc1C2 (stereo not drawn)",
    "test_readout": "IC50",
    "observed_value": "77.6 nM"
  },
  {
    "compound": "CCNC(=O)OCC1CCN(CC2CC3c4ccccc4Cc4ccc(F)cc4C3O2)C1 (mixture of isomers)",
    "test_readout": "IC50",
    "observed_value": "1.41 nM"
  }
]

# get_value(readout= IC50, system= human cloned 5-HT2C receptor, expressed in CHO cells (Homo sapiens)) for OC1CCCN(CC2CC3c4ccccc4Cc4ccc(F)cc4C3O2)C1 (single isomer, unassigned) [Compound 142]
3.16 nM

* * *

Target: human cloned 5-HT2A receptor, expressed in L929 cells (Homo sapiens)
Construct: expressed in transfected cells; host or cells: L929 cells
Assay: In vitro binding affinity for 5-HT2A receptor ([125I]R91150 radioligand binding)
Settings: human cloned 5-HT2A receptor in L929 cells, [125I]R91150; read-out: 5-HT2A pIC50 (converted)
Procedure: In Vitro Binding Affinity for 5-HT2A and 5-HT2C Receptors The interaction of the compounds of Formula (I) with 5-HT2A and 5-HT2C receptors was assessed in in vitro radioligand binding experiments. […] When equilibrium of binding is reached, the receptor bound radioactivity is separated from the non-bound radioactivity, and the receptor bound activity is counted. The interaction of the test compounds with the receptors is assessed in competition binding experiments. […]
test_readout: IC50 (nM)
Report only the number, with the unit nM understood.

Record excerpt, results attached:
[
  {
    "molecule": "COc1ccccc1OC1CCN(CC2CC3c4ccccc4Cc4ccc(F)cc4C3O2)C1 (mixture of isomers) [Compound 32]",
    "measure_unit": "nM",
    "IC50": 2.19
  },
  {
    "molecule": "COCC1(O)CCN(C[C@H]2C[C@@H]3c4ccccc4Cc4ccc(F)cc4[C@@H]3O2)CC1 [Compound 272]",
    "measure_unit": "nM",
    "IC50": 1.23
  }
]

Proceeding to the next molecule to report its IC50.
Lookup: IC50 / human cloned 5-HT2A receptor, expressed in L929 cells (Homo sapiens) / O=C(NCc1ccccc1)OCC1CCN(CC2CC3c4ccccc4Cc4ccc(F)cc4C3O2)C1 (mixture of isomers) [Compound 24]
1.82

* * *

Molecular target: human Dopamine D2L receptor (Homo sapiens, UniProt P14416)
Construct: expressed in transfected cells; host or cells: CHO cells
Sequence (P14416 whole entry): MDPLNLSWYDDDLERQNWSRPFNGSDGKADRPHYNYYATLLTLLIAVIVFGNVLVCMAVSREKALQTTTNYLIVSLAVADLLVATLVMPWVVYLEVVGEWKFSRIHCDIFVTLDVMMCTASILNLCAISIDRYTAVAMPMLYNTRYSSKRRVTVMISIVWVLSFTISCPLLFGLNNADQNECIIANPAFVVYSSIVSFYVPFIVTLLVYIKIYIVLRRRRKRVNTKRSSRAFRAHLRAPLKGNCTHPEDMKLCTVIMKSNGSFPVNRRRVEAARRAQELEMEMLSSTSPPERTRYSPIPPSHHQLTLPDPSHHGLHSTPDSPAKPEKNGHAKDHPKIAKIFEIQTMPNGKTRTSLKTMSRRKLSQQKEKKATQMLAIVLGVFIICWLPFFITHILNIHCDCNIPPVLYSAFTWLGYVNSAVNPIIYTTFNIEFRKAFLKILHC
Assay: In vitro binding affinity for human D2L receptor ([3H]Spiperone binding)
Conditions: human D2L receptor-transfected CHO cell membranes, read-out: D2L pIC50 (converted)
A collection of compounds and their measured log10 of IC50
Give log10 of IC50, with IC50 taken in nM.

Before answering, review these 3 worked examples.
[
  {
    "compound": "O=C(O)C1CCN(C[C@H]2C[C@@H]3c4ccccc4Cc4ccc(F)cc4[C@@H]3O2)C1 (some centres unmarked)",
    "log10 of IC50": 2.64
  },
  {
    "compound": "O=C(NCCC(c1ccccc1)c1ccccc1)C1CCN(CC2CC3c4ccccc4Cc4ccc(F)cc4C3O2)CC1 (centres unmarked)",
    "log10 of IC50": 1.40
  },
  {
    "compound": "N#CCCC1CCN(CC2CC3c4ccccc4Cc4ccc(F)cc4C3O2)CC1 (centres unmarked)",
    "log10 of IC50": 0.18
  }
]

For CC(C)c1ccccc1NC(=O)C1CCN(CC2CC3c4ccccc4Cc4ccc(F)cc4C3O2)CC1 (centres unmarked) , what is its reported log10 of IC50?
1.19

Input N#Cc1ccc(C(=O)NC2CCN(CC3CC4c5ccccc5Cc5ccc(F)cc5C4O3)CC2)cc1 (centres unmarked)
0.83

* * *

Measured IC50 by item
Target: human Dopamine D2L receptor (Homo sapiens)
Construct: expressed in transfected cells; host or cells: CHO cells
Assay: In vitro binding affinity for human D2L receptor ([3H]Spiperone binding)
Conditions: human D2L receptor-transfected CHO cell membranes, read-out: D2L pIC50 (converted)
Method: In Vitro Binding Affinity for Human D2L Receptor Frozen membranes of human Dopamine D2L receptor-transfected CHO cells were thawed, briefly homogenised using an Ultra-Turrax T25 homogeniser and diluted in Tris-HCl assay buffer containing NaCl, CaCl2, MgCl2, KCl (50, 120, 2, 1, and 5 mM respectively, adjusted to pH 7.7 with HCl) to an appropriate protein concentration optimised for specific and non-specific binding. […]
State just the number; it will be interpreted in nM.

Examples with answers:
[
  {
    "molecule": "O=C(Cc1cccs1)NC1CCN(CC2CC3c4ccccc4Cc4ccc(F)cc4C3O2)CC1 (stereo not shown) [Compound 240]",
    "test_readout": "IC50",
    "measure_unit": "nM",
    "observed_value": 4.57
  },
  {
    "molecule": "COc1ccc(C)c(NC(=O)C2CCN(CC3CC4c5ccccc5Cc5ccc(F)cc5C4O3)CC2)c1 (stereo not shown) [Compound 191]",
    "test_readout": "IC50",
    "measure_unit": "nM",
    "observed_value": 11.7
  },
  {
    "molecule": "CC(C)(C)CC(C)(C)NC(=O)NC1CCN(CC2CC3c4ccccc4Cc4ccc(F)cc4C3O2)CC1 (stereo not shown) [Compound 245]",
    "test_readout": "IC50",
    "measure_unit": "nM",
    "observed_value": 23.4
  }
]

--- query ---
Please report the recorded IC50 for O=C(NC1CCN(CC2CC3c4ccccc4Cc4ccc(F)cc4C3O2)CC1)c1c(F)c(F)c(F)c(F)c1F (stereo not shown) [Compound 234] .
8.71

* * *

Biological target: human Dopamine D2L receptor (Homo sapiens, UniProt P14416)
Construct: expressed in transfected cells; host or cells: CHO cells
Test: In vitro binding affinity for human D2L receptor ([3H]Spiperone binding)
Settings: human D2L receptor-transfected CHO cell membranes, read-out: D2L pIC50 (converted)
Entries and their IC50
I only need the number, in nM, no unit after it.

Answered examples (3):
[
  {
    "compound": "CCOC(=O)C1CCCN(C[C@H]2C[C@@H]3c4ccccc4Cc4ccc(F)cc4[C@@H]3O2)C1 (stereo partly shown)",
    "IC50 (nM)": 14.5
  },
  {
    "compound": "COCCC1CN(C[C@H]2C[C@@H]3c4ccccc4Cc4ccc(F)cc4[C@@H]3O2)CCO1 (stereo partly shown)",
    "IC50 (nM)": 21.9
  },
  {
    "compound": "O=C(NC1CCCCCC1)C1CCN(CC2CC3c4ccccc4Cc4ccc(F)cc4C3O2)CC1 (stereo not shown)",
    "IC50 (nM)": 15.5
  }
]

// below: IC50 requested for another compound
Item under review: OC1CCCN(CC2CC3c4ccccc4Cc4ccc(F)cc4C3O2)C1 (racemic) [Compound 141] . Reported IC50?
16.6
